Attribute: Activity
system.tested: Protein N-lysine methyltransferase METTL21A (Homo sapiens)
assay.text: Inhibition of METTL21A (unknown origin) using biotin-labeled histone substrate assessed as residual activity at 50 uM in presence of [3H-Me]SAM by scintillation proximity assay relative to control
Response body: numeric value in %, unit text excluded.

{"compound": "CN1CCCCC12CCN(C(=O)c1cccc(Br)c1)CC2", "system.tested": "Protein N-lysine methyltransferase METTL21A (Homo sapiens)", "scale.unit": "%", "numeric.result": 97}
{"compound": "CN1CCC2(CC1)CCN(C(=O)c1cccc(Br)c1)CC2", "system.tested": "Protein N-lysine methyltransferase METTL21A (Homo sapiens)", "scale.unit": "%", "numeric.result": 105}
{"compound": "CN1CCCC12CCCN(C(=O)c1cccc(Br)c1)C2 (configuration not stated)", "system.tested": "Protein N-lysine methyltransferase METTL21A (Homo sapiens)", "scale.unit": "%", "numeric.result": 92}
{"compound": "O=C(c1cccc(Br)c1)N1CC[C@@H]2[C@@H](CC3CCCCN32)C1 (some centres not stated)", "system.tested": "Protein N-lysine methyltransferase METTL21A (Homo sapiens)", "scale.unit": "%", "numeric.result": 99}
{"compound": "CN1CC[C@H]2CN(C(=O)c3cccc(Br)c3)C[C@H]21", "system.tested": "Protein N-lysine methyltransferase METTL21A (Homo sapiens)", "scale.unit": "%", "numeric.result": 89}

Now let's try a different one.
stdin: # lookup: Activity of C[N+]1(C)CCCCC12CCN(C(=O)c1cccc(Br)c1)CC2
stdout: 97

----------
system.tested: UniProtKB Q9NQR1
Sequence (Q9NQR1 whole entry, the tested form may be a part): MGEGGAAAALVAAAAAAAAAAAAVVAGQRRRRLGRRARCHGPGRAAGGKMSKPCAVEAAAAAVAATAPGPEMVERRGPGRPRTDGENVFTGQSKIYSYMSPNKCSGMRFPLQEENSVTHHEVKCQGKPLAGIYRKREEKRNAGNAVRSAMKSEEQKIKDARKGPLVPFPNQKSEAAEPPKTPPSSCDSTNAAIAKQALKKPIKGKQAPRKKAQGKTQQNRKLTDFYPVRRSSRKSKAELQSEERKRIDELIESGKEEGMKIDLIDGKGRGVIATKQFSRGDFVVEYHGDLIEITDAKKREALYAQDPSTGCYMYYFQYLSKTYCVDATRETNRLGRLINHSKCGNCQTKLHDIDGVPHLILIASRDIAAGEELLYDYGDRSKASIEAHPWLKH
assay.text: Inhibition of SETD8 (unknown origin) using biotin-labeled histone H4 (1 to 24 residues) as substrate assessed as residual activity at 50 uM in presence of [3H-Me]SAM by scintillation proximity assay relative to control
measure.name: Activity (%)
Give your result in % as a bare value.

{"molecule": "O=C(c1cccc(Br)c1)N1CC[C@@H]2[C@@H](CC3CCCCN32)C1 (stereo partly specified)", "Activity, %": 104}
{"molecule": "CN1C[C@H]2CCCN(C(=O)c3cccc(Br)c3)[C@H]2C1", "Activity, %": 85}
{"molecule": "CN1CCC2(CCCN2C(=O)c2cccc(Br)c2)CC1", "Activity, %": 91}
{"molecule": "C[N+]1(C)CCCCC12CCN(C(=O)c1cccc(Br)c1)CC2", "Activity, %": 49}
{"molecule": "O=C(c1cccc(Br)c1)N1CCCC2(CCNCC2)C1", "Activity, %": 105}

Turning now to a further record.
stdin: So what's the measured Activity for this one? CN1CC[C@H]2CN(C(=O)c3cccc(Br)c3)C[C@H]21
stdout: 105

----------
system.tested: Histone-lysine N-methyltransferase 2C (Homo sapiens)
assay.text: Inhibition of MLL3 (unknown origin) using biotin-labeled histone substrate assessed as residual activity at 50 uM in presence of [3H-Me]SAM by scintillation proximity assay relative to control
measure.name: Activity

{"molecule": "O=C(c1cccc(Br)c1)N1CCCC2(CCNCC2)C1", "Activity": "107%"}
{"molecule": "O=C(c1cccc(Br)c1)N1C[C@@H]2CC3CCCN3[C@@H]2C1 (some centres not stated)", "Activity": "97%"}
{"molecule": "O=C(c1cccc(Br)c1)N1C[C@@H]2CCN[C@@H]2C1", "Activity": "95%"}
{"molecule": "CN1CCC[C@@H]2CN(C(=O)c3cccc(Br)c3)C[C@@H]21", "Activity": "106%"}
{"molecule": "CN1CCC2(CCCN(C(=O)c3cccc(Br)c3)C2)C1 (configuration not stated)", "Activity": "94%"}

stdin: Requested field: Activity. Item: CN1CCCCC12CCCN(C(=O)c1cccc(Br)c1)C2 (configuration not stated)
stdout: 103%

stdin: Consider the molecule shown here: O=C(c1cccc(Br)c1)N1CCC2(CCNCC2)CC1 What is its recorded Activity?
stdout: 103%

stdin: Item under review: CN1CCCC2(CCCN2C(=O)c2cccc(Br)c2)C1 (configuration not stated) . Reported Activity?
stdout: 97%

stdin: Quick one: Activity of O=C(c1cccc(Br)c1)N1C[C@@H]2CC3CCCCN3[C@@H]2C1 (some centres not stated) ?
stdout: 102%

stdin: For the molecule shown here, CN1CCCC2(CCCN(C(=O)c3cccc(Br)c3)C2)C1 (configuration not stated) , give the reported Activity.
stdout: 96%

stdin: Query: Activity; subject: CN1CCCCC12CCN(C(=O)c1cccc(Br)c1)CC2
stdout: 104%

stdin: Dear colleague, I am looking for the recorded Activity of the following molecule: CN1CCC2(CCCN2C(=O)c2cccc(Br)c2)CC1
stdout: 97%
